Across several publications, the following IC50 results were reported for O-acyltransferase (Oryctolagus cuniculus, UniProt G1SFD9).
Number only, in nM; omit the unit.

Study these solved cases before continuing.
>>> print(df.to_string())
                                   compound  resultunits  observedmeasurement
0  CCCCCNC(=O)Nc1c(OCCCn2nnc(-c3ccccc3)n2)cccc1N(C)C           nM                   23
1  CCCCCNC(=O)Nc1c(OCCn2cnc(-c3ccccc3)c2)cccc1N(C)C           nM                  170
2  CCCCCCCCCCC(C)(C)C(=O)Nc1c(C)c([N+](=O)[O-])c(C)c2c1OC(C)(C)C2           nM                   36
3  Cc1cc(C)c(NC(=O)C(C)(C)CCCCCc2ccccc2)c2c1CC(C)(C)O2           nM                  120
4  CCCc1ccc(NC(=O)Nc2c(C(C)C)cccc2C(C)C)cc1           nM                   38

Query block: Query (compound): `O=C(Nc1c(F)cc(F)cc1F)N(Cc1ccc(-c2ccccn2)cc1)C1CCCCCC1` ; field requested: IC50
Result block: 25

Query block: Query (compound): `CSc1cc(C)nc(SC)c1NC(=O)N(Cc1ccccc1)Cc1ccc(-c2ccn(C)n2)cc1` ; field requested: IC50
Result block: 29

Query block: Query (compound): CC(C)c1cccc(C(C)C)c1NC(=O)NC1CCc2ccccc2C1 (stereo not given) ; field requested: IC50
Result block: 63

Query block: Query (compound): `CCCCCCCCCCCCc1ccc(NC(=O)Nc2c(C(C)C)cccc2C(C)C)cc1` ; field requested: IC50
Result block: 15

Query block: Query (compound): `CCCCCCN1NN=C(NC(=O)Nc2c(C(C)C)cccc2C(C)C)N1` ; field requested: IC50
Result block: 73
